# Assay Method Text: in vitro
# Test Context: human, HEK293T WT Cell viability (% of controll), 6.4 μM, dose–response, individual replicates

# Compound, viability at 72 h, 6.4 µM
measured = [
    ("Cc1ccccc1CN1C(=O)C2=C(CCN(Cc3ccccc3)C2)N2CCN=C12 [ONC201, reference compound]", "18%"),
]

----------
# Test system: Fadu cells
# Assay Method Text: CellTiter-Glo luminescent cell viability assay, Fadu
# Test Context: Homo sapiens, FaDu, read-out: Fadu IC50 values, individual replicates n1-n3, IC50 independently determined for each replicate measurement (Supplement S.6)
pIC50: −log10 of the molar value.
Experimental Readout: pIC50

# Molecule, Test System, Numeric Value
measured = [
    ("Cc1ccccc1CN1C(=O)C2=C(CCN(Cc3ccccc3)C2)N2CCN=C12 [ONC201, reference compound]", "Fadu cells", 5.87),
    ("NCC#Cc1ccc(CN2C(=O)C3=C(CCN(Cc4ccc(-n5cc(-c6ccccc6)nn5)cc4)C3)N3CCN=C23)cc1 [I/B, reference compound]", "Fadu cells", 4.96),
]
